Consider the following compounds; for each one, report its inhibition in vivo at 2 mg/kg.
system: Moxifloxacin-induced QTc prolongation; test: Cardiac response testing: protection against Moxifloxacin-induced QTc prolongation (ECG telemetry); type: in vivo, adult male Hartley guinea pigs; conditions: Cavia porcellus, po, 6 h; read-out: Protection at 6 h post dose
Report the figure in % without appending any unit label.

State the recorded inhibition in vivo at 2 mg/kg for this entry: CCCCCCCCCCCCCC(=O)OC[C@H](COP(=O)([O-])OCC(COC(C)=O)OC(C)=O)OC(=O)CCCCCCCCCCCCC.[Na+] (some centres unmarked) [Compound 1, Phosphate]
116

State the recorded inhibition in vivo at 2 mg/kg for this entry: CCCCCCCCCCCCCC(=O)OC[C@H](COP(=O)([O-])OCC(COC(=O)CC(C)C)OC(=O)CC(C)C)OC(=O)CCCCCCCCCCCCC.[Na+] (some centres unmarked) [Compound 8, Phosphate]
132

State the recorded inhibition in vivo at 2 mg/kg for this entry: CCCCCCCCCCCCCC(=O)OC[C@H](COP(=O)([O-])OCC1COC(CCCCC)O1)OC(=O)CCCCCCCCCCCCC.[Na+] (some centres unmarked) [Compound 6, Phosphate]
138

State the recorded inhibition in vivo at 2 mg/kg for this entry: CCCCCCCCCCCCCC(=O)OC[C@H](COP(=O)([O-])OCC(COC(=O)C(C)C)OC(=O)C(C)C)OC(=O)CCCCCCCCCCCCC.[Na+] (some centres unmarked) [Compound 9, Phosphate]
116

State the recorded inhibition in vivo at 2 mg/kg for this entry: CCCCCCCCCCCCCC(=O)OC[C@H](COP(=O)([O-])OCC(COC(=O)CCC)OC(=O)CCC)OC(=O)CCCCCCCCCCCCC.[Na+] (some centres unmarked) [Compound 7, Phosphate]
147

State the recorded inhibition in vivo at 2 mg/kg for this entry: CCCCCCCCCCCCCCCC1OCC(COP(=O)([O-])OC[C@@H](COC(=O)CCCCCCCCCCCCC)OC(=O)CCCCCCCCCCCCC)O1.[Na+] (some centres unmarked) [Compound 5, Phosphate]
176

State the recorded inhibition in vivo at 2 mg/kg for this entry: CCCCCCCCCCCCCCCCCC1OCC(COP(=O)([O-])OC[C@@H](COC(=O)CCCCCCCCCCCCC)OC(=O)CCCCCCCCCCCCC)O1.[Na+] (some centres unmarked) [Compound 4, Phosphate]
90

State the recorded inhibition in vivo at 2 mg/kg for this entry: CCCCCCCCCCCCCC(=O)OC[C@H](COP(=O)([O-])OCC(COC(=O)OCC)OC(=O)OCC)OC(=O)CCCCCCCCCCCCC.[Na+] (some centres unmarked) [Compound 2, Phosphate]
90
